# System tested: γ-secretase complex (Homo sapiens)
# Procedure summary: APP-C99 counter assay (GSI reporter assay)
# Assay type: cell-based
# Experimental setup: 24 h; 25µM; APP-C99 counter assay; read-out: 3p-DR in % of DMSO counter
Measurement kind: remaining activity at 25 µM (%)
Answer format: numeric, % implied, no suffix.

Recorded remaining activity at 25 µM, per entry:
>>> reading("COc1cccc(CNc2ccc(N3CCOCC3)cc2)c1OCc1ccccc1F")
158
>>> reading("Cc1ccc2[nH]c3c(c2c1)CCOC31CCN(Cc2ccccc2-c2ccccc2)CC1")
149
>>> reading("Cc1ccc(-c2noc([C@@H]3Cc4[nH]cnc4CN3C(=O)CCC(=O)O)n2)cc1")
129
>>> reading("CC(=O)Oc1cccc(N2C(=O)c3ccc(Oc4cccc(N)c4)cc3C2=O)c1")
59.7
>>> reading("NC(=O)c1c(NC(=O)NCc2cccnc2)sc2c1CCC2")
134
>>> reading("COc1cccc(CNc2ccc(N3CCCCC3)cc2)c1OCc1cccs1")
152

Note: attention shifts to another entry.
[Q] Requested field: remaining activity at 25 µM. Item: `CCc1c(C(=O)N(C)Cc2cnn(C(C)C)c2)[nH]c2ccccc12`
[A] 62.2

---

# Tested on: RPMI-8402 cells
# Procedure summary: Growth inhibition, metabolic activity (CellTiter-Glo)
# Format: cell-based
# Experimental setup: Homo sapiens; RPMI-8402, six days; read-out: approximated IC50, growth (metabolic activity)
# Source text: We next investigated whether compounds A-E affected growth and viability of cell lines from T-cell acute lymphoblastic leukaemia (T-ALL) and breast cancer, two tumour types in which elevated Notch signalling has been implicated in tumorigenesis. […]
Recorded IC50 by entry
Use nM as the unit, but write only the number.

>>> reading("COc1cccc(CNc2ccc(N3CCCCC3)cc2)c1OCc1cccs1")
600

[Q] Query for RPMI-8402 cells: what IC50 does the record show for `Cc1ccc2[nH]c3c(c2c1)CCOC31CCN(Cc2ccccc2-c2ccccc2)CC1` ?
[A] 500

[Q] Report IC50 for CC(C)(C)c1ccc(Oc2ccc(N)cn2)cc1 [CB-103, reference compound] tested on RPMI-8402 cells.
[A] 900

---

# Test system: MDA-MB-231 cells
# Procedure summary: Three dose response gene expression analysis (qRT-PCR)
# Format: cell-based
# Experimental setup: 0.1, 1 and 10 µM, 24 h
Measurement kind: HES4 expression

>>> reading("NC(=O)c1c(NC(=O)NCc2cccnc2)sc2c1CCC2 [compound D]")
"reduced"
>>> reading("Cc1ccc2[nH]c3c(c2c1)CCOC31CCN(Cc2ccccc2-c2ccccc2)CC1 [compound B]")
"reduced"
>>> reading("CCc1c(C(=O)N(C)Cc2cnn(C(C)C)c2)[nH]c2ccccc12 [compound A]")
"reduced"

---

# Tested on: Notch signalling
# Procedure summary: Notch reporter assay (12xCSL firefly luciferase / renilla luciferase, HEK293T Notch1ΔE reporter cell line clone #A1-11)
# Format: cell-based
# Experimental setup: 9p dose response; AUCs averaged when replicates available
Measurement kind: AUC 9p Notch reporter assay
Give only the figure.

[Q] Please give the measured AUC 9p Notch reporter assay for this compound: CC(C)(C)c1ccc(Oc2ccc(N)cn2)cc1 [CB-103, reference compound]
[A] 3.40E+02

[Q] Could you share which AUC 9p Notch reporter assay value was measured for NC(=O)[C@@H](CC1CC1)[C@@H](CCC(F)(F)F)C(=O)N[C@H]1N=C(c2ccccc2)c2cccc(F)c2NC1=O [BMS-983970, reference compound] ?
[A] 2.16E+02

[Q] Record request: AUC 9p Notch reporter assay value, item C[C@H](NC(=O)Cc1cc(F)cc(F)c1)C(=O)N[C@H](C(=O)OC(C)(C)C)c1ccccc1 [DAPT, reference compound]
[A] 3.01E+02

[Q] Entry C[C@H](NC(=O)Cc1cc(F)cc(F)c1)C(=O)N[C@@H]1C(=O)N(C)c2ccccc2-c2ccccc21 [YO-01027, reference compound] has what AUC 9p Notch reporter assay?
[A] 1.99E+02

[Q] So what's the measured AUC 9p Notch reporter assay for this one? C[C@H](NC(=O)[C@@H](O)c1cc(F)cc(F)c1)C(=O)N[C@@H]1C(=O)N(C)c2ccccc2-c2ccccc21 [LY-411575, reference compound]
[A] 1.91E+02

[Q] // AUC 9p Notch reporter assay lookup, key: CC(C)(C(=O)NCC(F)(F)C(F)(F)F)C(=O)N[C@@H]1C(=O)Nc2ccccc2-c2ccccc21 [RO4929097, reference compound]
[A] 2.36E+02

---

Reported pIC50 values are given for each entry in this list.
# Test system: T-ALL and breast cancer cell lines
# Procedure summary: Growth inhibition in tumour cell lines (panel, cell lines not named singly)
# Assay type: cell-based
# Experimental setup: all cell lines (breast cancer), six days; read-out: IC50, metabolic activity
pIC50: −log10 of the molar value.

Worked cases, pIC50 given:
>>> reading("CCc1c(C(=O)N(C)Cc2cnn(C(C)C)c2)[nH]c2ccccc12 [compound A]")
"< 5.00"
>>> reading("NC(=O)c1c(NC(=O)NCc2cccnc2)sc2c1CCC2 [compound D]")
"< 5.00"

Please examine the following record next.
[Q] Consider the compound Cc1nn(-c2nc3ccccc3s2)c(O)c1C1OC(=O)c2ccccc21 (stereo not drawn) [compound E] and give its measured pIC50.
[A] < 5.00

---

# System tested: γ-secretase complex (Homo sapiens, UniProt P49768)
# Procedure summary: APP-C99 counter assay (GSI reporter assay)
# Format: cell-based
# Set-up: scale not given here
# Experimental setup: area under the 14-point dose-response curve; replicates averaged
Measurement kind: AUC APP

>>> reading("CC(=O)Oc1cccc(N2C(=O)c3ccc(Oc4cccc(N)c4)cc3C2=O)c1")
428.7
>>> reading("CCn1ncc(CN(C)C(=O)c2cc(-c3cccnc3)nc3ccc(Cl)cc23)c1C")
735.5
>>> reading("C[C@H](NC(=O)Cc1cc(F)cc(F)c1)C(=O)N[C@H](C(=O)OC(C)(C)C)c1ccccc1 [DAPT, reference compound]")
580.4

[Q] API: value(readout= AUC APP, system= γ-secretase complex (Homo sapiens, UniProt P49768), query= Cc1[nH]c2cccc(C(=O)N3CCCCC3CCNC(=O)c3ccccc3)c2c1C (centres unmarked) )
[A] 774.2

[Q] Given the entry `Cc1ccccc1CN1CCC2(CC1)OCCc1c2[nH]c2ccc(F)cc12` , what AUC APP was observed with γ-secretase complex (Homo sapiens, UniProt P49768)?
[A] 704.0

---

// reported 3p-DR in % of DMSO counter per item
# System tested: γ-secretase complex (Homo sapiens)
# Procedure summary: APP-C99 counter assay (GSI reporter assay)
# Format: cell-based
# Experimental setup: 1,25µM; APP-C99 counter assay

[Q] Given the compound COc1cc(Nc2cc(-c3ccccc3N(C)C)ncn2)cc(OC)c1OC [CBK090702] , what is its reported 3p-DR in % of DMSO counter?
[A] 124.5 % of DMSO

[Q] Bench note: what 3p-DR in % of DMSO counter did CCCC(=O)c1ccc(S(=O)(=O)N2CCN(Cc3csc(-c4ccccc4)n3)CC2)cc1 [CBK063161] show?
[A] 122.5 % of DMSO

[Q] Give its 3p-DR in % of DMSO counter value. Item: C[C@@H]1C(=O)O[C@H]2[C@H]1CC[C@@]1(C)Cc3sc(NC(=O)CCC(=O)O)nc3[C@@H](C)[C@H]21 [CBK289429]
[A] 76.3 % of DMSO

[Q] Reported 3p-DR in % of DMSO counter, compound Nc1ccc(Sc2nccnc2N2CCCC2)cc1 [CBK089520] : ____
[A] 115.4 % of DMSO

[Q] Given the entry O=C(Nc1ccc(O)c(-c2nc3ccccc3o2)c1)c1ccc(-c2ccc([N+](=O)[O-])cc2)o1 [CBK263439] , report its measured 3p-DR in % of DMSO counter.
[A] 130.0 % of DMSO

[Q] So what does the record say about 3p-DR in % of DMSO counter for CC(C)Nc1cncc(OCc2ccc(Cl)c(Cl)c2)n1 [CBK115653] ?
[A] 104.9 % of DMSO

[Q] Entry O=C(NC(Nc1cccc(C(F)(F)F)c1)C(=O)c1ccccc1)c1ccc(Cl)cc1 (stereo not drawn) [CBK263585] has what 3p-DR in % of DMSO counter?
[A] 97.7 % of DMSO

[Q] // query 3p-DR in % of DMSO counter value for entry Cc1ccc(NC(=O)c2cnc(SCc3ccc(F)cc3)n(C)c2=O)cc1C [CBK287674]
[A] 116.8 % of DMSO

[Q] Look up 3p-DR in % of DMSO counter for this compound: Fc1cc(CN2CCC3(CC2)OCCc2c3[nH]c3ccc(Br)cc23)cc(F)c1F [CBK039943]
[A] 92.8 % of DMSO

[Q] What value of 3p-DR in % of DMSO counter has been reported for the following compound? O=C(O)c1c2c(nc3ccccc13)C(=Cc1ccc3c(c1)OCCO3)CC2 [CBK297479]
[A] 29.7 % of DMSO

[Q] What value of 3p-DR in % of DMSO counter has been reported for the following compound? NC(=O)c1[nH]nc(C2OC(CO)C(O)C2O)c1O (stereo not drawn) [CBK201236]
[A] 135.7 % of DMSO

[Q] Fill blank: measured 3p-DR in % of DMSO counter of the compound C[C@@H]1C(=O)O[C@H]2[C@H]1CC[C@@]1(C)Cc3sc(NC(=O)CN(C)C)nc3[C@@H](C)[C@H]21 [CBK289431] is ____.
[A] 71.4 % of DMSO

[Q] Consider the compound COc1ccc(N(CC(O)CN2CCOCC2)S(=O)(=O)c2ccccc2)cc1 (stereo not drawn) [CBK263589] and give its measured 3p-DR in % of DMSO counter.
[A] 74.5 % of DMSO
